Target: T1, murine GPC3-his protein (murine, UniProt Q8CFZ4 25-558, limits assumed)
T1 construct: Bought protein; also called mouse GPC3 protein; murine GPC3 protein; not shown: His tag
T1 sequence (Q8CFZ4 25-558 limits assumed): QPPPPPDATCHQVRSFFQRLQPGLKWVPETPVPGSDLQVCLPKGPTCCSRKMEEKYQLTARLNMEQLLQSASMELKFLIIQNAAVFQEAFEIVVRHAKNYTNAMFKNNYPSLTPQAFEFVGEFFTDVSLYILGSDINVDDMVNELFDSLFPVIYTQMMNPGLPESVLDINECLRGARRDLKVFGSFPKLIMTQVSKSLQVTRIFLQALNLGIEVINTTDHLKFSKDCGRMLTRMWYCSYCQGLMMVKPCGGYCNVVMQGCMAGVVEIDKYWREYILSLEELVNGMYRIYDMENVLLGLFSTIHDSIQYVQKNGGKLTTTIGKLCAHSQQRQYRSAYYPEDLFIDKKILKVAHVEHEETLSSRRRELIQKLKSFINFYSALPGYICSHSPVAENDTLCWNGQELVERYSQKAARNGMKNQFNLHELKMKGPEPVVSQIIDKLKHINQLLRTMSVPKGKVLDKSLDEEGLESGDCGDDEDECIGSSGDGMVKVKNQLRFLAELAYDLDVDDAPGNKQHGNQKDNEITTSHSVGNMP
Assay: ELISA, murine GPC3-his coated; antibody 0.11 nM
reportedEndpoint: OD450 nm
// keep it numeric: no unit symbol after the value

hAb001H1aL1a (antibody, human IgG1, V domains shown, Humanized F2.169.2, H1a+L1a) VH: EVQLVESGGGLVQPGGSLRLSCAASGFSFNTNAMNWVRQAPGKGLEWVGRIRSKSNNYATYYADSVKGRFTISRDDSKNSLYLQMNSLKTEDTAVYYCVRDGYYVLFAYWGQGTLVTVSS VL: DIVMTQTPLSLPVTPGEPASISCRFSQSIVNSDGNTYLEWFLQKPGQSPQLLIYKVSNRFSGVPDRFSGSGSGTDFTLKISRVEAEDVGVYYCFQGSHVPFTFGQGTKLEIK : 1.49

// query What does the data say about its OD450 nm? Entry: hAb001H2L1a (antibody, human IgG1, V domains shown, Humanized F2.169.2, H2+L1a) VH: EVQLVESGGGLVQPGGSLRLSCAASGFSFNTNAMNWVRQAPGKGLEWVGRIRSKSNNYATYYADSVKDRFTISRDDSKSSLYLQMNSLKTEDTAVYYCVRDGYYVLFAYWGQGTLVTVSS VL: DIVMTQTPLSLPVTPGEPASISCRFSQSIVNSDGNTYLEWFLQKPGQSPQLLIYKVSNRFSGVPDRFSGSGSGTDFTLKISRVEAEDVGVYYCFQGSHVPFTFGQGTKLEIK
// result 1.59
